TEST_TARGET: human GLP-1R (Homo sapiens (Human), UniProt P43220, L260F)
Sequence (P43220 24-463 L260F): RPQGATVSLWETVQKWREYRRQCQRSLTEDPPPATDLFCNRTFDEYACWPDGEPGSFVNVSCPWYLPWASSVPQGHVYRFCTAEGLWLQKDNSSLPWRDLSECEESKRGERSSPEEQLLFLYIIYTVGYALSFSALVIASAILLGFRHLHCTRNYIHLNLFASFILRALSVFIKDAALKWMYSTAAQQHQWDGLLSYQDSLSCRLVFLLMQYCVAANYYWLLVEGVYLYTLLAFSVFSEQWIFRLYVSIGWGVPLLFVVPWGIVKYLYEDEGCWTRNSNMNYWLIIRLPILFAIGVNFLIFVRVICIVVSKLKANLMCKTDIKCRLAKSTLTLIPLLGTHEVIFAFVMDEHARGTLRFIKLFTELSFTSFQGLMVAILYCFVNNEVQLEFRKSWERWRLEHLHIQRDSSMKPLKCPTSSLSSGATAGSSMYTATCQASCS
TEST_DESCRIPTION: CHO GLP-1R Clone C6—Assay 2: HTRF cAMP cell-based functional agonist assay (low GLP-1R density)
EXPERIMENTAL_PARAMETERS: CHO GLP-1R Clone C6; relative to saturating concentration of full agonist GLP-1 (1 μM); arithmetic mean; read-out: Assay 2 Emax (%)
RECORDED_METRIC: Emax (%)

COMPOUND | OUTPUT_UNIT | MEASURED
[2H]C([2H])(Oc1cccc(C2CCN(Cc3nc4ccc(C(=O)O)cc4n3C[C@@H]3CCO3)CC2)n1)c1ccc(C#N)cc1F | % | 120
C[C@H]1CN(c2cccc(OCc3ccc(C#N)cc3F)n2)CCN1Cc1nc2ccc(C(=O)O)cc2n1C[C@@H]1CCO1 [Example 10A-47] | % | 95
O=C(O)c1ccc2nc(CN3CCC(c4cccc(OCc5ccc(Cl)cc5F)n4)CC3)n(Cc3cocn3)c2c1 [Example 10A-41] | % | 82
COCCn1c(CN2CCN(c3cccc(OCc4ccc(C#N)cc4)n3)CC2)nc2ccc(C(=O)O)cc21 | % | 97

====

TEST_TARGET: human GLP-1R (Homo sapiens (Human), UniProt P43220, L260F)
TEST_DESCRIPTION: CHO GLP-1R Clone C6—Assay 2: HTRF cAMP cell-based functional agonist assay (low GLP-1R density)
EXPERIMENTAL_PARAMETERS: CHO GLP-1R Clone C6, cAMP HTRF; geometric mean
RECORDED_METRIC: EC50 (nM)

See these solved cases before continuing.
COMPOUND | TEST_TARGET | MEASURED
COCCn1c(CN2CCC(c3cccc(OCc4ccc(C#N)cc4)n3)CC2)nc2cc(F)c(C(=O)O)cc21 | human GLP-1R (Homo sapiens (Human), UniProt P43220, L260F) | 3000
COCCn1c(CN2CCN(c3ccc(F)c(OCc4ccc(Cl)cc4F)n3)C[C@@H]2C)nc2ccc(C(=O)O)cc21 | human GLP-1R (Homo sapiens (Human), UniProt P43220, L260F) | 45
CCn1cncc1Cn1c(CN2CCN(c3cccc(OCc4ccc(Cl)cc4F)n3)C[C@@H]2C)nc2ccc(C(=O)O)cc21 [Example 10A-67] | human GLP-1R (Homo sapiens (Human), UniProt P43220, L260F) | 6.8
O=C(O)c1ccc2nc(CN3CCC(c4cccc(OCc5ccc(Cl)cc5F)n4)CC3)n(Cc3nnc[nH]3)c2c1 [Example 11A-25] | human GLP-1R (Homo sapiens (Human), UniProt P43220, L260F) | 360
COCCn1c(CN2CCN(c3cccc(OCc4ccc(Cl)cc4F)n3)C[C@@H]2CO)nc2ccc(C(=O)O)cc21 [Example 12A-09] | human GLP-1R (Homo sapiens (Human), UniProt P43220, L260F) | 540
CCn1cnnc1Cn1c(CN2CCC(c3cccc(OCc4ccc(Cl)cc4F)n3)CC2)nc2ccc(C(=O)O)cc21 [Example 10A-07] | human GLP-1R (Homo sapiens (Human), UniProt P43220, L260F) | 68

1: Cc1ccn(CCn2c(CN3CCC(c4cccc(OCc5ccc(Cl)cc5F)n4)CC3)nc3ccc(C(=O)O)cc32)n1 [Example 11A-31]
2: CCn1cncc1Cn1c(CN2CCC(c3cccc(OCc4ccc(Cl)cc4F)n3)CC2)nc2ccc(C(=O)O)cc21 [Example 10A-02]
**Q:** Pick one: 1 or 2 . Which has the bigger EC50 number? // respond with label for picked entry
**A:** 1
(1: 1500 nM, 2: 2.2 nM)

I: O=C(O)c1ccc2nc(CN3CCN(c4cccc(OCc5ccc(Cl)cc5F)n4)CC3)n(C[C@@H]3CCO3)c2n1 [Example 10A-74]
II: COCCn1c(CN2CCC(c3ccc(F)c(OCc4ccc(Cl)cc4F)n3)CC2)nc2ccc(C(=O)O)cc21
**Q:** Pick one: I or II . Which has the bigger EC50 number? // respond with label for picked entry
**A:** II
